These measurements were taken from patent US9249129B2.

# maps each entry to its IC50
biological target: kinases (kinome) (Homo sapiens); construct: determined in kinobeads assays with mass spectrometry detection of kinases as described previously; endogenous in cells; assay: kinobeads assay with mass spectrometry detection of kinases (kinase selectivity profile); conditions: GCK (STE), IPI00149094

SMILES_REPR: C[C@H]1COCCN1c1nc(-c2ccc(NC(=O)NC3CC3)cc2)cc(-c2cc(F)ccc2S(C)(=O)=O)n1
IC50: > 10 µM
//
SMILES_REPR: C[C@H]1COCCN1c1nc(-c2ccc(NC(=O)NC3CC3)cc2)cc(-c2ccccc2S(C)(=O)=O)n1
IC50: > 10 µM
//
SMILES_REPR: C[C@H]1COCCN1c1nc(-c2ccc(NC(=O)NC3CC3)cc2)cc(-c2cccnc2S(C)(=O)=O)n1
IC50: > 10 µM

---

target: DNA-dependent protein kinase (DNA-PK) (Homo sapiens, UniProt P78527); construct: endogenous in cells; host or cells: Jurkat cells (ATCC TIB-152, clone E6-1), lysate; assay: kinobeads assay, DNA-PK (dot blot detection); type: binding; details: Table 2, Jurkat cell lysate, read-out: Inhibition values (IC50) DNAPK
Sequence (P78527 whole entry): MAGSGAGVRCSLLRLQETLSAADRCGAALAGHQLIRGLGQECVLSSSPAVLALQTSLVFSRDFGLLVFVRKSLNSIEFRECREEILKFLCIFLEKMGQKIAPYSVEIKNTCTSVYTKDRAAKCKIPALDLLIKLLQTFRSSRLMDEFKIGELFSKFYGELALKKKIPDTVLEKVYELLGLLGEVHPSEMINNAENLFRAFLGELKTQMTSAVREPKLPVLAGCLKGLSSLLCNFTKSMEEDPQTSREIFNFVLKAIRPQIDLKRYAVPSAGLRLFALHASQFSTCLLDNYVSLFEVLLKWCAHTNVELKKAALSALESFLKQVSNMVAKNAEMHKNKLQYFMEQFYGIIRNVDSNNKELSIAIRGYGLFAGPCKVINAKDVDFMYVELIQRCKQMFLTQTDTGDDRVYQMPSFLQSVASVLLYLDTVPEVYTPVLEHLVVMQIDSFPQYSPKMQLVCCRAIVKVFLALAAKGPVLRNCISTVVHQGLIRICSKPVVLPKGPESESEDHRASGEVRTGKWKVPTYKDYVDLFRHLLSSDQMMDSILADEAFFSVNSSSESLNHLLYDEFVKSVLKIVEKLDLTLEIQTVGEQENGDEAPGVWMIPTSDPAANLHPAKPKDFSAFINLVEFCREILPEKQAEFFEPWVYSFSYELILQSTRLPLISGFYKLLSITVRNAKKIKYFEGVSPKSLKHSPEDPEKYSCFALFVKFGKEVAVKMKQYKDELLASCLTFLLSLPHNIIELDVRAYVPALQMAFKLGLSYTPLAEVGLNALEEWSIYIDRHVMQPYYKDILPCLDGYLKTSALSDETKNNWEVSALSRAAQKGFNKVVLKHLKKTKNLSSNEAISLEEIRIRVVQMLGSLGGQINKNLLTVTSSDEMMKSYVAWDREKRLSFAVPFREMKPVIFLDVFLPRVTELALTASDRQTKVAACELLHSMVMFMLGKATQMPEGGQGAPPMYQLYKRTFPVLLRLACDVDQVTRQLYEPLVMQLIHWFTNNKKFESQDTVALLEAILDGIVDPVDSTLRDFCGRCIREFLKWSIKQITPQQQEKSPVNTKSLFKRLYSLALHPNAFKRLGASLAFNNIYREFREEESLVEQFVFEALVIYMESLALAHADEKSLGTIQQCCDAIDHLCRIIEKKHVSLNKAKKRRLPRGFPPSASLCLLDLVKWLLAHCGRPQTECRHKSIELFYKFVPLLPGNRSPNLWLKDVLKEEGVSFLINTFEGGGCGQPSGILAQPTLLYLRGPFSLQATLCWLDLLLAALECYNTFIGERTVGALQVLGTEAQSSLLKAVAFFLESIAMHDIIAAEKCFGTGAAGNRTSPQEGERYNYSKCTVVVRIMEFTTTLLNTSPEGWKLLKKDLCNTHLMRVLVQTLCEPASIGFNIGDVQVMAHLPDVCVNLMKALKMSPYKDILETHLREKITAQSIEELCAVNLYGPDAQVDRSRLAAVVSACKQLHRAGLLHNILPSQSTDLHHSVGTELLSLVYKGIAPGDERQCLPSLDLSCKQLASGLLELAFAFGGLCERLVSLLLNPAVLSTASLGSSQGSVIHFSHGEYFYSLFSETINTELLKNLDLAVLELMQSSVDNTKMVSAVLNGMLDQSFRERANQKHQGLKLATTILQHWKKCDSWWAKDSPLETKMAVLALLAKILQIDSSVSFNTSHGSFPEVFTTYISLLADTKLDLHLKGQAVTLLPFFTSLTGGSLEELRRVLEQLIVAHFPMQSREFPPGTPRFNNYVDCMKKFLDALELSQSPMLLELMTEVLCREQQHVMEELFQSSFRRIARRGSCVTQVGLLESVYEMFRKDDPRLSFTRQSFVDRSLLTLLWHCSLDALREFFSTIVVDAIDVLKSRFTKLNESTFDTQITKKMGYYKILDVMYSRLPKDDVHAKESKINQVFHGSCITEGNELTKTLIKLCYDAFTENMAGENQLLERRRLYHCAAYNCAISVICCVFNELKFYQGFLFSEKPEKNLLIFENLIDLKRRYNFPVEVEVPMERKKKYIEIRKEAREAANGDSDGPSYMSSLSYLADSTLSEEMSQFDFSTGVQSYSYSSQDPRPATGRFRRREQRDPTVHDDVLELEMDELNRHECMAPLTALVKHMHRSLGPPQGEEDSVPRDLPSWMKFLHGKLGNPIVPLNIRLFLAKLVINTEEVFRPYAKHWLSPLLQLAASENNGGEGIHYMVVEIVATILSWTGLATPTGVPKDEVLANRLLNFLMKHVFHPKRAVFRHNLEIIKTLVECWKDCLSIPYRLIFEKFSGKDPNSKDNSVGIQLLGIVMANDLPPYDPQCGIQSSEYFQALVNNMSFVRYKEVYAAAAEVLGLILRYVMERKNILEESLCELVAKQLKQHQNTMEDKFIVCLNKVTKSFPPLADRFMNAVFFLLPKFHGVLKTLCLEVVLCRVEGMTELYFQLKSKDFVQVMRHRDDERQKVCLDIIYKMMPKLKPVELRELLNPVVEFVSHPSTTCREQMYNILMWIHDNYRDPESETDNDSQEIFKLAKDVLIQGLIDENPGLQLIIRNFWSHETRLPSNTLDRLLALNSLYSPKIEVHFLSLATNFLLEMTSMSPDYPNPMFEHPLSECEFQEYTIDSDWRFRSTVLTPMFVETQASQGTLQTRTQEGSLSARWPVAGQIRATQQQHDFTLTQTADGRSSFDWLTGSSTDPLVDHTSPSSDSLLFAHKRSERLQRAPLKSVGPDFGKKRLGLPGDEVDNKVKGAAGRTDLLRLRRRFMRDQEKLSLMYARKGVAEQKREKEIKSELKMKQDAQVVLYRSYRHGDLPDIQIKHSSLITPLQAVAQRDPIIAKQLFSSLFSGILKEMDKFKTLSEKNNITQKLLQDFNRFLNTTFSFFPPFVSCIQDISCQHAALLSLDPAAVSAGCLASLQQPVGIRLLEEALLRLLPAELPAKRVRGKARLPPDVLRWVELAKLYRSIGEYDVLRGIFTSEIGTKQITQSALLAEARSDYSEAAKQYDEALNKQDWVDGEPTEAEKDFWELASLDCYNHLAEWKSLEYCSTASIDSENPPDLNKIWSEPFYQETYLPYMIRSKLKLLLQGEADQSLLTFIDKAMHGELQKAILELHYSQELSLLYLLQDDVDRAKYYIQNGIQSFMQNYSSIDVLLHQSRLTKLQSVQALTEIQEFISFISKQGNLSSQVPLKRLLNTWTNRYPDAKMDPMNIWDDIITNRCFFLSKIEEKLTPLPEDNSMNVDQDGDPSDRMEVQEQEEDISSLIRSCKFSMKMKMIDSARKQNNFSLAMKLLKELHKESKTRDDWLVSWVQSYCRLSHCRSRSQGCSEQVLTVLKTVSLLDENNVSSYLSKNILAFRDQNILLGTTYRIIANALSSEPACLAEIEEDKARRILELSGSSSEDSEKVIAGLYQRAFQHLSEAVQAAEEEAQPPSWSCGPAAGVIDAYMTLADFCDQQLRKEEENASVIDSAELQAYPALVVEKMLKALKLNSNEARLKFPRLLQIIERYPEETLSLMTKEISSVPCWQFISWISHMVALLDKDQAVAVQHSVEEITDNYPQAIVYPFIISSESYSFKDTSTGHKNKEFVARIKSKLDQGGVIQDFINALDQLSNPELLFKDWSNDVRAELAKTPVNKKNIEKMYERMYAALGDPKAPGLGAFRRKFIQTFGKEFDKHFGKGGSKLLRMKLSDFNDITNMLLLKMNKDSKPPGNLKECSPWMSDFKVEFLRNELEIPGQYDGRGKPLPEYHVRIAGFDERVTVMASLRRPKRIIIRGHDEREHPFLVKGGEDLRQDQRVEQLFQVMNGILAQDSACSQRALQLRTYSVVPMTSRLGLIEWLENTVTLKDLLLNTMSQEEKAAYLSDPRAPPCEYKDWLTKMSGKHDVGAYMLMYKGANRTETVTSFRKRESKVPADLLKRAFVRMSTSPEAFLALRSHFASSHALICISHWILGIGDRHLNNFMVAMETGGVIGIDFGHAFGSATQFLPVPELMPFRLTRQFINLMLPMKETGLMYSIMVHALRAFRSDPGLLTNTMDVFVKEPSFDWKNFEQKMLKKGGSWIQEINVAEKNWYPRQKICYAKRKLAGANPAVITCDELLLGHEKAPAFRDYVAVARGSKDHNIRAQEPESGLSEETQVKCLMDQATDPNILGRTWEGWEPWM
pIC50: −log10 of the molar value.
Form field: pIC50 (one value per entry).
READOUT_TYPE: pIC50

COMPOUND: O=C(Nc1ccc(-c2nccc(N3CC4CCC(C3)O4)n2)cc1)NC1CC1
TEST_VALUE: 5.00 to 6.00
--
COMPOUND: CCNC(=O)Nc1ccc(-c2cc(-c3ccccc3NC(C)=O)nc(N3CCOC[C@@H]3C)n2)cc1
TEST_VALUE: ≤ 5.00
--
COMPOUND: C[C@H]1COCCN1c1cc(-c2ccccn2)nc(-c2ccc(NC(=O)NC3CC3)cc2)n1
TEST_VALUE: ≤ 5.00
--
COMPOUND: CCNC(=O)Nc1ccc(-c2cc(-c3ccccc3CO)nc(N3CCOC[C@@H]3C)n2)cc1
TEST_VALUE: ≤ 5.00
--
COMPOUND: C[C@H]1COCCN1c1cc(-c2cncc(F)c2)nc(-c2ccc(NC(=O)NCCO)cc2F)n1
TEST_VALUE: ≤ 5.00
--
COMPOUND: CNC(=O)Nc1ccc(-c2nccc(N3CCOCC3)n2)cc1
TEST_VALUE: 5.00 to 6.00
--
COMPOUND: O=C(Nc1ccc(-c2nccc(N3CCOCC3)n2)cc1)NC1CC1
TEST_VALUE: 5.00 to 6.00
--
COMPOUND: O=C(Nc1ccc(-c2ccnc(N3CC4CCC(C3)O4)n2)cc1)NC1CC1
TEST_VALUE: ≤ 5.00
--
COMPOUND: C[C@H]1COCCN1c1ccnc(-c2ccc(NC(=O)Nc3ccncc3)cc2)n1
TEST_VALUE: ≤ 5.00
--
COMPOUND: C[C@H]1COCCN1c1nc(-c2ccc(NC(=O)NCCO)cc2)cc(-c2cc(F)ccc2S(C)(=O)=O)n1
TEST_VALUE: ≤ 5.00
--
COMPOUND: C[C@H]1COCCN1c1nc(-c2ccc(NC(=O)NCCCO)cc2)cc(-c2cc(F)ccc2S(C)(=O)=O)n1
TEST_VALUE: ≤ 5.00
--
COMPOUND: O=C(Nc1ccc(-c2ccnc(N3CCOCC3)n2)cc1)NC1CC1
TEST_VALUE: ≤ 5.00
--
COMPOUND: C[C@H]1COCCN1c1ccnc(-c2ccc(NC(=O)NCCF)cc2)n1
TEST_VALUE: ≤ 5.00
--
COMPOUND: CCNC(=O)Nc1ccc(-c2cc(-c3ccccc3S(C)(=O)=O)nc(N3CCOCC3)n2)cc1
TEST_VALUE: ≤ 5.00
--
COMPOUND: O=C(NCCO)Nc1ccc(-c2nccc(N3CC4CCC(C3)O4)n2)cc1
TEST_VALUE: 5.00 to 6.00
--
COMPOUND: C[C@H]1COCCN1c1cc(-c2cc(F)ccc2S(C)(=O)=O)nc(-c2ccc(NC(=O)NC3CC3)cc2F)n1
TEST_VALUE: ≤ 5.00
--
COMPOUND: C[C@H]1COCCN1c1nc(-c2ccc(NC(=O)NC3CC3)cc2)cc(-c2cccnc2[S+](C)[O-])n1 (some centres unmarked)
TEST_VALUE: ≤ 5.00

---

target: kinases (kinome) (Homo sapiens, UniProt P17252); construct: determined in kinobeads assays with mass spectrometry detection of kinases as described previously; endogenous in cells; test: kinobeads assay with mass spectrometry detection of kinases (kinase selectivity profile); conditions: PKCa (AGC), IPI00385449
pIC50: −log10 of the molar value.

SMILES_REPR: C[C@H]1COCCN1c1cc(-c2ccccn2)nc(-c2ccc(NC(=O)NCCO)cc2)n1
pIC50: < 5.00
//
SMILES_REPR: C[C@H]1COCCN1c1cc(-c2ccccc2S(C)(=O)=O)nc(-c2ccc(NC(=O)NC3CC3)cc2)n1
pIC50: < 5.00
//
SMILES_REPR: C[C@H]1COCCN1c1nc(-c2ccc(NC(=O)NC3CC3)cc2)cc(-c2ccccc2S(C)(=O)=O)n1
pIC50: < 5.00
//
SMILES_REPR: C[C@H]1COCCN1c1nc(-c2ccc(NC(=O)NC3CC3)cc2)cc(-c2cc(F)ccc2S(C)(=O)=O)n1
pIC50: < 5.00
//
SMILES_REPR: C[C@H]1COCCN1c1nc(-c2ccc(NC(=O)N[C@H]3CCC[C@@H]3O)cc2)cc(-c2cc(F)ccc2S(C)(=O)=O)n1
pIC50: < 5.00
//
SMILES_REPR: CCNC(=O)Nc1ccc(-c2cc(-c3ccccc3C#N)nc(N3CCOC[C@@H]3C)n2)cc1
pIC50: < 5.00
//
SMILES_REPR: C[C@H]1COCCN1c1nc(-c2ccc(NC(=O)NC3CC3)cc2)cc(-c2cccnc2S(C)(=O)=O)n1
pIC50: < 5.00

---

Below: a set of entries, each annotated with reported pIC50.
biological target: kinases (kinome) (Homo sapiens, UniProt P29597); construct: determined in kinobeads assays with mass spectrometry detection of kinases as described previously; endogenous in cells; assay: kinobeads assay with mass spectrometry detection of kinases (kinase selectivity profile); conditions: TYK2 (TK), IPI00022353
pIC50: −log10 of the molar value.

MOLECULE: CCNC(=O)Nc1ccc(-c2cc(-c3ccccc3C#N)nc(N3CCOC[C@@H]3C)n2)cc1 [Example 8]
pIC50: < 5.00
//
MOLECULE: C[C@H]1COCCN1c1nc(-c2ccc(NC(=O)N[C@H]3CCC[C@@H]3O)cc2)cc(-c2cc(F)ccc2S(C)(=O)=O)n1 [Example 76]
pIC50: < 5.00
//
MOLECULE: C[C@H]1COCCN1c1nc(-c2ccc(NC(=O)NC3CC3)cc2)cc(-c2cccnc2S(C)(=O)=O)n1 [Example 46]
pIC50: < 5.00
//
MOLECULE: C[C@H]1COCCN1c1cc(-c2ccccn2)nc(-c2ccc(NC(=O)NCCO)cc2)n1 [Example 43]
pIC50: < 5.00
//
MOLECULE: C[C@H]1COCCN1c1nc(-c2ccc(NC(=O)NC3CC3)cc2)cc(-c2ccccc2S(C)(=O)=O)n1 [Example 4]
pIC50: < 5.00
//
MOLECULE: C[C@H]1COCCN1c1cc(-c2ccccc2S(C)(=O)=O)nc(-c2ccc(NC(=O)NC3CC3)cc2)n1 [Example 6]
pIC50: < 5.00
//
MOLECULE: C[C@H]1COCCN1c1nc(-c2ccc(NC(=O)NC3CC3)cc2)cc(-c2cc(F)ccc2S(C)(=O)=O)n1 [Example 40]
pIC50: < 5.00

---

target: kinases (kinome) (Homo sapiens, UniProt Q9UHD2); construct: determined in kinobeads assays with mass spectrometry detection of kinases as described previously; endogenous in cells; assay: kinobeads assay with mass spectrometry detection of kinases (kinase selectivity profile); details: TBK1 (Other), IPI00293613
Sequence (Q9UHD2 whole entry): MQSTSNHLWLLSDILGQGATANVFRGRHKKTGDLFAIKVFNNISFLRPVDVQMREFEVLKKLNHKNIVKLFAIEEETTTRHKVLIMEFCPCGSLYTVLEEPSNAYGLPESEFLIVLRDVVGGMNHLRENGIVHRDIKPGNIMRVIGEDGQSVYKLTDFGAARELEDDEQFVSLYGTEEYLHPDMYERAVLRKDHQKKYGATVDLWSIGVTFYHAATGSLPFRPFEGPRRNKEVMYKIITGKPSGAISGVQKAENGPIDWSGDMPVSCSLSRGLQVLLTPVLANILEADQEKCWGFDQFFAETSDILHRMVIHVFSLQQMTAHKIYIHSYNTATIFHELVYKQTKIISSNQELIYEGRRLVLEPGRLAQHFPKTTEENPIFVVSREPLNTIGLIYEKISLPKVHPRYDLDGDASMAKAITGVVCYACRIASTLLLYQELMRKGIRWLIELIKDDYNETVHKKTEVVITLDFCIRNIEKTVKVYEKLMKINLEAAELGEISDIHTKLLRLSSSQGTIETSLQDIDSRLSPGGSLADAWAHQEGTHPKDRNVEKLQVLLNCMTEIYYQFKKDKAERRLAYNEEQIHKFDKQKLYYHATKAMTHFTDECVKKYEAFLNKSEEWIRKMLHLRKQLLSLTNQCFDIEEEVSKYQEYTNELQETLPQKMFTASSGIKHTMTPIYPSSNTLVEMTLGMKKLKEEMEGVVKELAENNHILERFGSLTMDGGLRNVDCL
pIC50: −log10 of the molar value.
Reported pIC50 is given for each of the following compounds.

COMPOUND: CCNC(=O)Nc1ccc(-c2cc(-c3ccccc3C#N)nc(N3CCOC[C@@H]3C)n2)cc1 [Example 8]
pIC50: < 5.00

COMPOUND: C[C@H]1COCCN1c1nc(-c2ccc(NC(=O)NC3CC3)cc2)cc(-c2ccccc2S(C)(=O)=O)n1 [Example 4]
pIC50: < 5.00

COMPOUND: C[C@H]1COCCN1c1nc(-c2ccc(NC(=O)NC3CC3)cc2)cc(-c2cc(F)ccc2S(C)(=O)=O)n1 [Example 40]
pIC50: < 5.00

COMPOUND: C[C@H]1COCCN1c1nc(-c2ccc(NC(=O)N[C@H]3CCC[C@@H]3O)cc2)cc(-c2cc(F)ccc2S(C)(=O)=O)n1 [Example 76]
pIC50: < 5.00

COMPOUND: C[C@H]1COCCN1c1cc(-c2ccccc2S(C)(=O)=O)nc(-c2ccc(NC(=O)NC3CC3)cc2)n1 [Example 6]
pIC50: < 5.00

COMPOUND: C[C@H]1COCCN1c1nc(-c2ccc(NC(=O)NC3CC3)cc2)cc(-c2cccnc2S(C)(=O)=O)n1 [Example 46]
pIC50: < 5.00

COMPOUND: C[C@H]1COCCN1c1cc(-c2ccccn2)nc(-c2ccc(NC(=O)NCCO)cc2)n1 [Example 43]
pIC50: < 5.00
